Where do these numbers come from? They come from patent US9260481B2.

# System: S. aureus
# EXPERIMENTAL DETAILS: Resistance profile of multiresistant clinical isolates
# Type: cell-based, Staphylococcus aureus
# Design: key: R: resistant; S: sensitive; I: intermediate
# CONDITIONS: S. aureus multiresistant clinical isolate 16666
READOUT NAME: Susceptibility of isolate to antibacterial (R/S/I)

- COMPOUND: "CCC[C@@H]1C[C@@H](C(=O)N[C@@H]([C@H]2O[C@H](SC)[C@H](O)[C@@H](O)[C@H]2O)[C@H](C)Cl)N(C)C1"
  MEASURED VALUE: "R"
- COMPOUND: "CC[C@H]1OC(=O)[C@H](C)[C@@H](O[C@H]2C[C@@](C)(OC)[C@@H](O)[C@H](C)O2)[C@H](C)[C@@H](O[C@@H]2O[C@H](C)C[C@H](N(C)C)[C@H]2O)[C@](C)(O)C[C@@H](C)C(=O)[C@H](C)[C@@H](O)[C@]1(C)O"
  MEASURED VALUE: "R"
- COMPOUND: "CC(=O)NC[C@H]1CN(c2ccc(N3CCOCC3)c(F)c2)C(=O)O1 [Linezolid, reference compound]"
  MEASURED VALUE: "S"
- COMPOUND: "CN[C@H](CC(C)C)C(=O)N[C@H]1C(=O)N[C@@H](CC(N)=O)C(=O)N[C@H]2C(=O)N[C@H]3C(=O)N[C@H](C(=O)N[C@H](C(=O)O)c4cc(O)cc(O)c4-c4cc3ccc4O)[C@H](O)c3ccc(c(Cl)c3)Oc3cc2cc(c3O[C@@H]2O[C@H](CO)[C@@H](O)[C@H](O)[C@H]2O[C@H]2C[C@](C)(N)[C@H](O)[C@H](C)O2)Oc2ccc(cc2Cl)[C@H]1O"
  MEASURED VALUE: "S"
- COMPOUND: "CO[C@@]1(NC(=O)Cc2cccs2)C(=O)N2C(C(=O)O)=C(COC(N)=O)CS[C@@H]21"
  MEASURED VALUE: "R"
